# Test Details: Water activity value of pharmaceutical additives, humidity conditions versus dry state
# Format: physicochemical
# Test Settings: opened minus sealed; N = 3
Measure Name: Water activity value, Difference

Consider the reported Water activity value, Difference for these compounds:
compound=OC[C@@H](O)[C@@H](O)[C@H](O)[C@H](O)CO test_value=0.10
compound=OC[C@H]1O[C@H](O[C@H]2O[C@H](CO)[C@@H](O)[C@H](O)[C@H]2O)[C@H](O)[C@@H](O)[C@@H]1O test_value=0.08
compound="O.OC[C@H]1O[C@@H](O[C@H]2[C@H](O)[C@@H](O)C(O)O[C@@H]2CO)[C@H](O)[C@@H](O)[C@H]1O (stereo partly shown) [Lactose hydrate]" test_value=0.16

Next up:
[Q] State the recorded Water activity value, Difference for this entry: OC[C@H]1O[C@@](CO)(O[C@H]2O[C@H](CO)[C@@H](O)[C@H](O)[C@H]2O)[C@@H](O)[C@@H]1O
[A] 0.05

----------
# Test Details: Water activity value of pharmaceutical additives, humidity conditions versus dry state
# Assay type: physicochemical
# Test Settings: additive alone; in bottles at 25° C. for 3 days in the presence of a desiccant; N = 3
# maps each entry to its Water activity value, Sealed

compound=OC[C@@H](O)[C@@H](O)[C@H](O)[C@H](O)CO measure_name="Water activity value, Sealed" test_value=0.35
compound=OC[C@H]1O[C@@](CO)(O[C@H]2O[C@H](CO)[C@@H](O)[C@H](O)[C@H]2O)[C@@H](O)[C@@H]1O measure_name="Water activity value, Sealed" test_value=0.38
compound="O.OC[C@H]1O[C@@H](O[C@H]2[C@H](O)[C@@H](O)C(O)O[C@@H]2CO)[C@H](O)[C@@H](O)[C@H]1O (stereo partly shown) [Lactose hydrate]" measure_name="Water activity value, Sealed" test_value=0.30

Next up:
[Q] State the recorded Water activity value, Sealed for this entry: OC[C@H]1O[C@H](O[C@H]2O[C@H](CO)[C@@H](O)[C@H](O)[C@H]2O)[C@H](O)[C@@H](O)[C@@H]1O
[A] 0.32

----------
# maps each entry to its Water activity value, Opened
# Test Details: Water activity value of pharmaceutical additives, humidity conditions versus dry state
# Assay type: physicochemical
# Test Settings: additive alone; 25° C. and 60% RH (opened) for 3 days; N = 3
Number, no unit, nothing else.

Consider the reported Water activity value, Opened for these compounds:
compound="O.OC[C@H]1O[C@@H](O[C@H]2[C@H](O)[C@@H](O)C(O)O[C@@H]2CO)[C@H](O)[C@@H](O)[C@H]1O (stereo partly shown) [Lactose hydrate]" test_value=0.46
compound="OC[C@H]1O[C@H](O[C@H]2O[C@H](CO)[C@@H](O)[C@H](O)[C@H]2O)[C@H](O)[C@@H](O)[C@@H]1O [Trehalose]" test_value=0.40
compound="OC[C@H]1O[C@@](CO)(O[C@H]2O[C@H](CO)[C@@H](O)[C@H](O)[C@H]2O)[C@@H](O)[C@@H]1O [Sucrose]" test_value=0.43

Next up:
[Q] State the recorded Water activity value, Opened for this entry: OC[C@@H](O)[C@@H](O)[C@H](O)[C@H](O)CO [Mannitol]
[A] 0.45
